Biological target: medaka MTNR1b (Oryzias latipes)
Assay: cAMP-responsive (CRE-luc) reporter gene assay, agonist mode
Assay type: cell-based
Conditions: stably transfected Hepa-E1 cells, 6.25 × 10^−7 M forskolin, 24 h; NC: not calculable (low activity, curve did not reach maximum); read-out: Potency (M) MTNR1b
OBSERVED_PROPERTY: EC50 (M)
One number for each entry, in M.

Exam item: Would you mind telling me what EC50 value was observed for COc1ccc2[nH]c(I)c(CCNC(C)=O)c2c1 ?
Marked response: 3.9e-11

====

Molecular target: medaka MTNR1b (Oryzias latipes, UniProt A0ACM8R453)
Sequence (A0ACM8R453 1-364): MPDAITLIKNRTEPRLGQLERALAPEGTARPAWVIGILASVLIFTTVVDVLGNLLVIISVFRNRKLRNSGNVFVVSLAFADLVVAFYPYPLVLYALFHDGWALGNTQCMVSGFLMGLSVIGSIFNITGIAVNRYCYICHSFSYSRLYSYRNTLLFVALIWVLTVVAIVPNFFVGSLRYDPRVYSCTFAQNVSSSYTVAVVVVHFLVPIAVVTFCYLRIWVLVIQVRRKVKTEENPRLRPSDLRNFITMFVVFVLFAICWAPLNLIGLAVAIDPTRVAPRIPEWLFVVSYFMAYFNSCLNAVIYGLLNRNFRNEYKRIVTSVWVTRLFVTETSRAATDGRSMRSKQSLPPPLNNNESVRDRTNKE
Experiment: cAMP-responsive (CRE-luc) reporter gene assay, agonist mode
Assay type: cell-based
Procedure: Expression vectors for medaka mtnr genes, (pcDNA-OlMTNR1a, pcDNA-OlMTNR1b, pcDNA-OlMTNR1c and pcDNA-OlMTNR1a-like) were constructed by PCR amplification of the entire protein coding region, using primers which introduced in-frame Kozak sequence[33] at the 5′ end. […] After 24 h the cells were collected, and cellular luciferase activities were measured by luminescence assay with the Steady-Glo Assay System Kit (Promega) according to the manufacturer’s instructions. […]
OBSERVED_PROPERTY: EC50 (nM)
Give bare numbers, in nM.

Exam item: Would you mind telling me what EC50 value was observed for COc1ccc2[nH]cc(CCNC(C)=O)c2c1 [Melatonin, N-acetyl-5-methoxytryptamine] ?
Marked response: 1.9
